# test-system: SMBP in rat colon smooth muscle membranes (Rattus norvegicus, UniProt A0A8I6A822)
# Sequence (A0A8I6A822 27-587): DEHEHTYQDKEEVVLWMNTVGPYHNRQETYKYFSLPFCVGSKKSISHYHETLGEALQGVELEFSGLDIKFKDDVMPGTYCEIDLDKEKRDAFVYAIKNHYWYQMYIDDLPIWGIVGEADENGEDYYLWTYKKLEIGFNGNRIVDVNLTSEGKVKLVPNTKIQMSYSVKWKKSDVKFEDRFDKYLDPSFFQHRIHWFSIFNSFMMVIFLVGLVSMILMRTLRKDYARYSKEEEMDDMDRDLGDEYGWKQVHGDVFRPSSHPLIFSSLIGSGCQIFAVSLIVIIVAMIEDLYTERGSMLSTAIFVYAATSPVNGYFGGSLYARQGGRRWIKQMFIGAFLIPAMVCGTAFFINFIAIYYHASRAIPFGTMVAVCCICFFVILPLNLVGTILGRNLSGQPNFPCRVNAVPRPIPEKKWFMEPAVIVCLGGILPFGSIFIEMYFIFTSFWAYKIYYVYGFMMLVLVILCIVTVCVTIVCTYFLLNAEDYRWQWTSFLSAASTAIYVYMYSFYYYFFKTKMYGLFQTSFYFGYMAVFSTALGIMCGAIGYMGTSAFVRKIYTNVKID
pKd: −log10 of the molar value.
parameter-measured: pKd

1. CC(C)(C)NCC(O)COc1cccc2[nH]c(C#N)c(I)c12 (single isomer, unassigned; (-)) [[^125I]-ICYP, (−)-3-[^125I] iodocyanopindolol]: 8.14

###

# test-system: [125I]-ICYP specific binding site (SMBP, SM-11044 binding protein) in rat colon smooth muscle membranes (Rattus norvegicus, UniProt A0A8I6A822)
# Construct: Membranes from colon smooth muscles were prepared as essentially described by Ek et al., 1986; from tissue
# Sequence (A0A8I6A822 27-587): as above
# test-protocol: [125I]-ICYP saturation and competition binding to rat colon membranes (Example 2)
# conditions: 1 nM [125I]-ICYP; 10 μM 5-HT, 10 μM phentolamine and 20 μM propranolol; read-out: Ki on [125I]-ICYP specific binding to rat colon membranes
This listing pairs compounds with measured Ki.
parameter-measured: Ki (µM)

1. C=CCc1ccccc1OCC(O)CNC(C)C (racemic) [(±)-alprenolol, alprenolol]: 13.3
2. COC(=O)COc1ccc(OCCNCC(O)COc2ccccc2)cc1 (racemic) [ICI-198157]: 29.4
3. COC(=O)COc1ccc(CC(C)NCC(O)c2cccc(Cl)c2)cc1 (centres unmarked) [BRL-35135A]: 1.4
4. O=C([C@@H](NCCCc1ccc(F)cc1)[C@H](O)c1ccc(O)c(O)c1)N1CCCC1 (racemic) [SM-14011]: 2
